# reported half-life; entries follow
- Test system: monoamine oxidase A and B (MAO-A and MAO-B)
- ASSAY_PROTOCOL: Stability in the presence of monoamine oxidases (human liver mitochondria preparation)
- Set-up: dose or concentration left out as unconfirmed
- TEST_SETTINGS: human, human liver mitochondria, pH 7.4
QUANTITY_NAME: half-life (min)

{"MOLECULE": "Oc1cccc2[nH]cc(CCNC3CC3)c12", "TARGET": "monoamine oxidase A and B (MAO-A and MAO-B)", "UNIT_OF_MEASUREMENT": "min", "SIGN": "=", "OBSERVED_RESULT": 115}
{"MOLECULE": "CNCCc1c[nH]c2cc(F)cc(O)c12", "TARGET": "monoamine oxidase A and B (MAO-A and MAO-B)", "UNIT_OF_MEASUREMENT": "min", "SIGN": "=", "OBSERVED_RESULT": 20.2}
{"MOLECULE": "CC(C)NCCc1c[nH]c2ccc(F)c(O)c12", "TARGET": "monoamine oxidase A and B (MAO-A and MAO-B)", "UNIT_OF_MEASUREMENT": "min", "SIGN": "=", "OBSERVED_RESULT": 29}
{"MOLECULE": "NCCc1c[nH]c2cc(F)cc(O)c12", "TARGET": "monoamine oxidase A and B (MAO-A and MAO-B)", "UNIT_OF_MEASUREMENT": "min", "SIGN": "=", "OBSERVED_RESULT": 30.1}
{"MOLECULE": "CCNCCc1c[nH]c2cccc(O)c12 [Compound 5, 3-(2-(ethylamino)ethyl)-1H-indol-4-ol]", "TARGET": "monoamine oxidase A and B (MAO-A and MAO-B)", "UNIT_OF_MEASUREMENT": "min", "SIGN": ">", "OBSERVED_RESULT": 145}
{"MOLECULE": "CNCCc1c[nH]c2cccc(O)c12", "TARGET": "monoamine oxidase A and B (MAO-A and MAO-B)", "UNIT_OF_MEASUREMENT": "min", "SIGN": "=", "OBSERVED_RESULT": 18.7}
{"MOLECULE": "CNCCc1c[nH]c2c(F)ccc(O)c12", "TARGET": "monoamine oxidase A and B (MAO-A and MAO-B)", "UNIT_OF_MEASUREMENT": "min", "SIGN": "=", "OBSERVED_RESULT": 15}
{"MOLECULE": "Oc1cccc2[nH]cc(CCNCCF)c12", "TARGET": "monoamine oxidase A and B (MAO-A and MAO-B)", "UNIT_OF_MEASUREMENT": "min", "SIGN": ">", "OBSERVED_RESULT": 145}
{"MOLECULE": "CC(C)n1cc(CCN(C)C)c2c(O)cc(F)cc21", "TARGET": "monoamine oxidase A and B (MAO-A and MAO-B)", "UNIT_OF_MEASUREMENT": "min", "SIGN": "=", "OBSERVED_RESULT": 78.7}

----------
# reported log10 of t1/2; entries follow
- ASSAY_PROTOCOL: Stability in rat brain homogenate
- Format: in vitro ADME, male Sprague Dawley rats
- TEST_SETTINGS: rat brain homogenate, 1 μM, 37° C.
- Procedure: Disclosed compounds were tested for stability in rat brain homogenate (Table 8). There was widely variable stability among the test compounds under the conditions of the experiment. Rat Brain Homogenate Stability. Frozen rat brain homogenate (pooled from male Sprague Dawley rats, BioreclamationIVT, RAT00BRAINMZA) was thawed in a water bath at 37° C. immediately prior to use. […]
QUANTITY_NAME: log10 of t1/2 (log10 of the value in min)

{"COMPOUND": "CN(C)CCc1c[nH]c2cccc(O)c12 [Psilocin, psilocin, reference compound]", "log10 of t1/2": 2.06}
{"COMPOUND": "CN(C)CCc1c[nH]c2ccc(F)cc12 [Compound 5-F-DMT, reference compound]", "log10 of t1/2": 0.43}
{"COMPOUND": "COc1ccc2[nH]cc(CCN(C)C)c2c1 [Compound 5-MeO-DMT, reference compound]", "log10 of t1/2": 1.16}
{"COMPOUND": "CN(C)CCc1c[nH]c2ccccc12 [DMT, N,N-dimethyltryptamine, reference compound]", "log10 of t1/2": 0.71}
{"COMPOUND": "CCN(C)CCc1c[nH]c2cccc(O)c12 [Compound 4-HO-MET, reference compound]", "log10 of t1/2": 1.72}

----------
- TARGET: 5-HT2B (Homo sapiens, UniProt P41595)
- Construct: host or cells: HEK293
- Sequence (P41595 whole entry, species assumed): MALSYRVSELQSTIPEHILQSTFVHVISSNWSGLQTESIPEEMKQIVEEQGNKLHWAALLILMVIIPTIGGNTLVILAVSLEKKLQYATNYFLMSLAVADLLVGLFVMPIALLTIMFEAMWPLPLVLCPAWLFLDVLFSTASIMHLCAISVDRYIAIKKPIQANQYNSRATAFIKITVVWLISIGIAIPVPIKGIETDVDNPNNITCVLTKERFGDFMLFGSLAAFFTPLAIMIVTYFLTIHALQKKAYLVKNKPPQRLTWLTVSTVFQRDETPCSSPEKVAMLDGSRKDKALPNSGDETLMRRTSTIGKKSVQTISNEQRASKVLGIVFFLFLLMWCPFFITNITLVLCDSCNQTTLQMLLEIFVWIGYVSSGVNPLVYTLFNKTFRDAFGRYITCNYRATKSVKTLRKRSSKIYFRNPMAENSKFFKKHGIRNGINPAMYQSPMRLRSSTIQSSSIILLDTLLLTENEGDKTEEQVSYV
- ASSAY_PROTOCOL: FLIPR Ca2+ flux agonist assay at 5-HT2B
- Format: cell-based
- TEST_SETTINGS: Ca2+ flux, HEK293, max dose
- Description: A solution of 250 mM probenecid in 1 mL FLIPR assay buffer was prepared fresh. This was combined with a fluorescent dye (Fluo-4 Direct™) to make a final assay concentration of 2.5 mM. […] The fluorescent dye was then added to the assay plate along with assay buffer to a final volume of 40 μL. […] 10 μL of references and compounds were then transferred from the compound plate into the cell plate and the fluorescent signal was read.

{"MOLECULE": "CC(C)n1cc(CCN(C)C)c2c(O)cc(F)cc21", "5-HT2B % Act @ Max Dose / %": 1.99}
{"MOLECULE": "NCCc1c[nH]c2cc(F)cc(O)c12", "5-HT2B % Act @ Max Dose / %": 99.12}
{"MOLECULE": "Oc1cccc2[nH]cc(CCNCCF)c12", "5-HT2B % Act @ Max Dose / %": 20.76}
{"MOLECULE": "CN(C)CCc1c[nH]c2ccc(F)cc12 [Compound 5-F-DMT, reference compound]", "5-HT2B % Act @ Max Dose / %": 17.6}
{"MOLECULE": "CCNCCc1c[nH]c2ccc(Cl)c(O)c12", "5-HT2B % Act @ Max Dose / %": 43.30}

----------
# reported log10 EC50; entries follow
- TARGET: 5-HT1A (Homo sapiens, UniProt P08908)
- Construct: host or cells: CHO cells
- Sequence (P08908 whole entry, species assumed): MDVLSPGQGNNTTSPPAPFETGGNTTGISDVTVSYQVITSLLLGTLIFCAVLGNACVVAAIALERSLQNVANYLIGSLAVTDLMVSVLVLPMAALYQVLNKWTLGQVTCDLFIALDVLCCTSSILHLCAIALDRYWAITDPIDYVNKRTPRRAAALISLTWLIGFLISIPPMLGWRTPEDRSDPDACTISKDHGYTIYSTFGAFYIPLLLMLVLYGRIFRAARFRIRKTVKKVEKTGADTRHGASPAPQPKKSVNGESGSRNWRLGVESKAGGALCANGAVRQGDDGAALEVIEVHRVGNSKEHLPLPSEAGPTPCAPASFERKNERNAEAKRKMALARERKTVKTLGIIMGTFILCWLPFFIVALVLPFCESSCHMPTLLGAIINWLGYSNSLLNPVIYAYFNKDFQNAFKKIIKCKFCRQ
- ASSAY_PROTOCOL: FLIPR Ca2+ flux agonist assay at 5-HT1A
- Format: cell-based
- Experimental: A solution of 250 mM probenecid in 1 mL FLIPR assay buffer was prepared fresh. This was combined with a fluorescent dye (Fluo-4 Direct™) to make a final assay concentration of 2.5 mM. […] The fluorescent dye was then added to the assay plate along with assay buffer to a final volume of 40 μL. […] 10 μL of references and compounds were then transferred from the compound plate into the cell plate and the fluorescent signal was read.
QUANTITY_NAME: log10 EC50 (log10 of the value in µM)

{"MOLECULE": "NCCc1c[nH]c2cccc(O)c12 [Compound 1, 3-(2-aminoethyl)-1H-indol-4-ol]", "OBSERVED_RESULT": 1.97}
{"MOLECULE": "CN(C)CCc1c[nH]c2ccc(F)cc12 [Compound 5-F-DMT, reference compound]", "OBSERVED_RESULT": 0.76}
{"MOLECULE": "CCNCCc1c[nH]c2ccc(F)c(O)c12 [Compound 28]", "OBSERVED_RESULT": 0.96}
{"MOLECULE": "CCN(C)CCc1c[nH]c2ccccc12 [MET, N-methyl-N-ethyltryptamine, reference compound]", "OBSERVED_RESULT": 1.76}
{"MOLECULE": "Oc1c(F)ccc2[nH]cc(CCNC3CC3)c12 [Compound 27]", "OBSERVED_RESULT": 0.09}
{"MOLECULE": "CCNCCc1c[nH]c2ccc(Cl)c(O)c12 [Compound 38]", "OBSERVED_RESULT": 0.26}
{"MOLECULE": "Oc1cccc2[nH]cc(CCNC3CC3)c12 [Compound 4]", "OBSERVED_RESULT": 0.82}
{"MOLECULE": "NCCc1c[nH]c2ccc(F)c(O)c12 [Compound 30, 3-(2-aminoethyl)-5-fluoro-1H-indol-4-ol]", "OBSERVED_RESULT": 0.72}
{"MOLECULE": "CCCNCCc1c[nH]c2cccc(O)c12 [Compound 3, 3-(2-(propylamino)ethyl)-1H-indol-4-ol]", "OBSERVED_RESULT": 1.52}
{"MOLECULE": "CCNCCc1c[nH]c2ccc(C)c(O)c12 [Compound 37]", "OBSERVED_RESULT": 0.84}
{"MOLECULE": "CC(C)NCCc1c[nH]c2ccc(F)c(O)c12 [Compound 35]", "OBSERVED_RESULT": 1.97}
{"MOLECULE": "NCCc1c[nH]c2cc(F)cc(O)c12 [Compound 31, 3-(2-aminoethyl)-6-fluoro-1H-indol-4-ol]", "OBSERVED_RESULT": 1.10}
{"MOLECULE": "CNCCc1c[nH]c2ccc(F)c(O)c12 [Compound 26]", "OBSERVED_RESULT": 0.54}
